Experimental Protocol: tumor tissue concentration after iv injection in mice bearing colon 33 tumor
Type: in vivo
Cond: mouse, colon 33 tumor tissue; Example 5; iv; for 42 hours; read-out: concentration maintained in tumor tissue

| Line Notation | concentration at 42 h [ng/g] |
| --- | --- |
| COc1cc2oc(=O)cc(COC(=O)c3c(I)c(NC(C)=O)c(I)c(NC(C)=O)c3I)c2cc1OC | 60000 |

---

Experimental Protocol: tumor tissue concentration after iv injection in mice bearing colon 33 tumor
Type: in vivo
Cond: mouse, colon 33 tumor tissue; Example 5; iv; read-out: time of maximum drug concentration in tumor tissue
Recorded Metric: Tmax (h)

| Compound | Recorded Metric | Unit Spec | Test Value |
| --- | --- | --- | --- |
| COc1cc2oc(=O)cc(COC(=O)c3c(I)c(NC(C)=O)c(I)c(NC(C)=O)c3I)c2cc1OC [WIN 67591] | Tmax | h | 6 |

---

Experimental Protocol: tumor tissue concentration after iv injection in mice bearing colon 33 tumor
Format: in vivo
Cond: mouse, colon 33 tumor tissue, iv; Example 7; at 6 hour post injection, i.v. 0.2 ml/animal; read-out: maximum drug concentration in tumor tissue

| Line Notation | Cmax at 6 h [ng/g] |
| --- | --- |
| COc1cc2oc(=O)cc(COC(=O)c3c(I)c(NC(C)=O)c(I)c(NC(C)=O)c3I)c2cc1OC | 90000 |

---

Experimental Protocol: water solubility
Assay type: physicochemical
Cond: in water; starting materials; read-out: water solubility
Recorded Metric: solubility

| Compound | Test Value |
| --- | --- |
| CC(=O)Nc1c(I)c(NC(C)=O)c(I)c(C(=O)O)c1I [sodium ditriazoate, sodium diatrizoate, reference compound] | > 1000 µg/mL |

---

Experimental Protocol: tumor tissue concentration after iv injection in mice bearing colon 33 tumor
Type: in vivo
Cond: mouse, colon 33 tumor tissue, iv; Example 7; i.v. 0.2 ml/animal; read-out: time of maximum drug concentration in tumor tissue

| Line Notation | Tmax / h |
| --- | --- |
| COc1cc2oc(=O)cc(COC(=O)c3c(I)c(NC(C)=O)c(I)c(NC(C)=O)c3I)c2cc1OC | 6 |

---

Experimental Protocol: tumor tissue concentration after iv injection in mice bearing colon 33 tumor
Format: in vivo
Cond: mouse, colon 33 tumor tissue, iv; Example 7; for 48 hours, i.v. 0.2 ml/animal; read-out: concentration maintained in tumor tissue

| Line Notation | concentration at 48 h (ng/g) |
| --- | --- |
| COc1cc2oc(=O)cc(COC(=O)c3c(I)c(NC(C)=O)c(I)c(NC(C)=O)c3I)c2cc1OC | 60000 |

---

Experimental Protocol: water solubility
Type: physicochemical
Cond: water

| Line Notation | solubility |
| --- | --- |
| COc1ccc2c(COC(=O)c3c(I)c(NC(C)=O)c(I)c(NC(C)=O)c3I)cc(=O)oc2c1 | < 10 µg/mL |
